Data provenance: patent US20210196796A1

- assayed system: T1, orthogonal hCD122 receptor (hoRb), hCD122 with H133D and Y134F (human, UniProt P14784 27-550)
- T1 sequence: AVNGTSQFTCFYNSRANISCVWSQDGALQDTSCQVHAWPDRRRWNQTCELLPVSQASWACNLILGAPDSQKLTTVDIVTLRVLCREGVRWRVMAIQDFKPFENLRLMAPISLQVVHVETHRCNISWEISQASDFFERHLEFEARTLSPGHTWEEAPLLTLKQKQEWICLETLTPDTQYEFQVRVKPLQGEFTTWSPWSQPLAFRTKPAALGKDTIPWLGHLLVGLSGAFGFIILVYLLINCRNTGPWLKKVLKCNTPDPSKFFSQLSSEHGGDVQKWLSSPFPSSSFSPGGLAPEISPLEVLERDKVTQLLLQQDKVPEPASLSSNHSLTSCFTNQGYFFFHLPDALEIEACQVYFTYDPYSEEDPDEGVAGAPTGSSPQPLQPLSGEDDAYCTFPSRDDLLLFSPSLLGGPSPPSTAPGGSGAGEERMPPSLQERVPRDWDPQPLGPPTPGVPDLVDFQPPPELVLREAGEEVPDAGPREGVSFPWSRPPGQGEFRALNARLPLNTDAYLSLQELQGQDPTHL
- experiment summary: cell-based or functional assay
observation type: 3F8 Ortho Proliferation Signal 1:50 (cts/min)

Given the entry SNVLKA (ligand) APTSSSTKKTQLQLSNLLVLLKAILNGINNYKNPKLTRMLTFKFYMPKKATELKHLQCLEEELKPLEEVLNLAQSKNFHLRPRDLISNINVIVLELKGSETTFMCEYADETATIVEFLNRWITFCQSIISTLT , report its measured 3F8 Ortho Proliferation Signal 1:50.
19000

Another: L14W, SQVLKA (ligand) APTSSSTKKTQLQWSQLLVLLKAILNGINNYKNPKLTRMLTFKFYMPKKATELKHLQCLEEELKPLEEVLNLAQSKNFHLRPRDLISNINVIVLELKGSETTFMCEYADETATIVEFLNRWITFCQSIISTLT
13600

Another: F42K, SQVLKA (ligand) APTSSSTKKTQLQLSQLLVLLKAILNGINNYKNPKLTRMLTKKFYMPKKATELKHLQCLEEELKPLEEVLNLAQSKNFHLRPRDLISNINVIVLELKGSETTFMCEYADETATIVEFLNRWITFCQSIISTLT
1570

Another: Q74S, SQVLKA (ligand) APTSSSTKKTQLQLSQLLVLLKAILNGINNYKNPKLTRMLTFKFYMPKKATELKHLQCLEEELKPLEEVLNLASSKNFHLRPRDLISNINVIVLELKGSETTFMCEYADETATIVEFLNRWITFCQSIISTLT
27100

Another: ΔT7, SQVLKA (ligand) APTSSSKKTQLQLSQLLVLLKAILNGINNYKNPKLTRMLTFKFYMPKKATELKHLQCLEEELKPLEEVLNLAQSKNFHLRPRDLISNINVIVLELKGSETTFMCEYADETATIVEFLNRWITFCQSIISTLT
10700

(P) ΔL14, SQVLKA (ligand) APTSSSTKKTQLQSQLLVLLKAILNGINNYKNPKLTRMLTFKFYMPKKATELKHLQCLEEELKPLEEVLNLAQSKNFHLRPRDLISNINVIVLELKGSETTFMCEYADETATIVEFLNRWITFCQSIISTLT
(Q) L18S, SQVLKA (ligand) APTSSSTKKTQLQLSQLSVLLKAILNGINNYKNPKLTRMLTFKFYMPKKATELKHLQCLEEELKPLEEVLNLAQSKNFHLRPRDLISNINVIVLELKGSETTFMCEYADETATIVEFLNRWITFCQSIISTLT
Compare P and Q by numeric 3F8 Ortho Proliferation Signal 1:50 and name the larger one. Give the chosen item's label as your response.
Q
(Q: 23600 cts/min, P: 8130 cts/min)
